# Species: Rattus norvegicus
# assay comment: Open TG-GATES - Regimen: Daily Repeat
# Type: toxicity, organism-based, Sprague-Dawley
# Parameters: regimen Daily Repeat, gender Male, age 6 weeks
# condition context: in vivo, po, 0 mg/kg, […], tissue Plasma, route gavage, dose level Control, time 7 day
Listed next: entries and their corresponding Na.
quantity kind: Na (meq/L)

1) CC(=O)Oc1cc(C(C)C)c(OCCN(C)C)cc1C | 142.6
2) CC(=N)S [THIOACETAMIDE] | 136.2
3) C[C@](N)(Cc1ccc(O)c(O)c1)C(=O)O | 143.8
4) O=C(O)c1cccnc1 | 139.8
5) CCSCC[C@H](N)C(=O)O | 140.6
6) O=C(N[C@H](CO)[C@H](O)c1ccc([N+](=O)[O-])cc1)C(Cl)Cl | 143.2

---

# Species: Rattus norvegicus
# assay comment: Open TG-GATES - Regimen: Daily Repeat
# Type: toxicity, organism-based, Sprague-Dawley
# Design: regimen Daily Repeat, gender Male, age 6 weeks
# condition context: in vivo, po, 0 mg/kg, […], tissue Blood, route gavage, dose level Control, time 7 day
quantity kind: Fbg (mg/dL)

1) CC(=O)Oc1cc(C(C)C)c(OCCN(C)C)cc1C | 294.6
2) CC(C)C(=O)Nc1ccc([N+](=O)[O-])c(C(F)(F)F)c1 [FLUTAMIDE] | 230.6
3) O=C(N[C@H](CO)[C@H](O)c1ccc([N+](=O)[O-])cc1)C(Cl)Cl | 274.8
4) CCN1CCCC1CNC(=O)c1cc(S(N)(=O)=O)ccc1OC (stereo not given) [SULPIRIDE] | 286.6
5) CCSCC[C@H](N)C(=O)O | 222.8

---

# Species: Rattus norvegicus
# assay comment: Open TG-GATES - Regimen: Single
# Type: toxicity, organism-based, Sprague-Dawley
# Design: regimen Single, gender Male, age 6 weeks
# condition context: in vivo, po, 0 mg/kg, 6 h, tissue Kidney, route gavage, dose level Control
quantity kind: KIDNEY_L

1) Oc1ncnc2[nH]ncc12 [ALLOPURINOL] | 0.9 g
2) CC(C)(S)[C@@H](N)C(=O)O [PENICILLAMINE] | 0.9 g
3) C[C@]12CCC(=O)C=C1CC[C@@H]1[C@@H]2CC[C@@]2(C)[C@H]1CC[C@]2(C)O [METHYLTESTOSTERONE] | 0.9 g
4) C#C[C@]1(O)CC[C@H]2[C@@H]3CCc4cc(O)ccc4[C@H]3CC[C@@]21C [ETHINYL ESTRADIOL] | 0.8 g
5) Nc1nc(N)c2nc(-c3ccccc3)c(N)nc2n1 | 1 g
6) O=C(N[C@H](CO)[C@H](O)c1ccc([N+](=O)[O-])cc1)C(Cl)Cl [CHLORAMPHENICOL] | 0.9 g
7) CC(=O)Oc1cc(C(C)C)c(OCCN(C)C)cc1C [MOXISYLYTE] | 0.9 g
8) CN1C(=O)OC(C)(C)C1=O [TRIMETHADIONE] | 0.9 g
9) C[C@](N)(Cc1ccc(O)c(O)c1)C(=O)O [METHYLDOPA] | 0.8 g
10) CCc1oc2ccccc2c1C(=O)c1cc(I)c(O)c(I)c1 [BENZIODARONE] | 1 g

---

# Species on record: Rattus norvegicus
# assay comment: Open TG-GATES - Regimen: Daily Repeat
# Format: toxicity, organism-based, Sprague-Dawley
# Design: regimen Daily Repeat, gender Male, age 6 weeks
# condition context: in vivo, po, 1000 mg/kg, […], tissue Plasma, route gavage, dose level High, time 14 day
quantity kind: RALB (g/dL)

1. O=C(O)c1cccnc1 [NIACIN] | 3.1
2. CCN1CCCC1CNC(=O)c1cc(S(N)(=O)=O)ccc1OC (centres undefined) [SULPIRIDE] | 2.7
3. CC(C)(S)[C@@H](N)C(=O)O [PENICILLAMINE] | 2.7
4. O=C(N[C@H](CO)[C@H](O)c1ccc([N+](=O)[O-])cc1)C(Cl)Cl [CHLORAMPHENICOL] | 2.7

---

Listed here are molecules together with their documented DBIL.
# Species on record: Rattus norvegicus
# assay comment: Open TG-GATES - Regimen: Daily Repeat
# Assay type: toxicity, organism-based, Sprague-Dawley
# Design: regimen Daily Repeat, gender Male, age 6 weeks
# condition context: in vivo, po, 0 mg/kg, […], tissue Plasma, route gavage, dose level Control, time 28 day
quantity kind: DBIL (mg/dL)

1. CC(=O)Oc1cc(C(C)C)c(OCCN(C)C)cc1C [MOXISYLYTE] | 0.0025
2. Oc1ncnc2[nH]ncc12 [ALLOPURINOL] | 0.018
3. CN1C(=O)OC(C)(C)C1=O [TRIMETHADIONE] | 0.004
4. Nc1nc(N)c2nc(-c3ccccc3)c(N)nc2n1 | 0.012
5. O=C(N[C@H](CO)[C@H](O)c1ccc([N+](=O)[O-])cc1)C(Cl)Cl [CHLORAMPHENICOL] | 0.018
6. CC(C)(S)[C@@H](N)C(=O)O [PENICILLAMINE] | 0.008
7. CCSCC[C@H](N)C(=O)O [ETHIONINE] | 0.1
8. CC(C)C(=O)Nc1ccc([N+](=O)[O-])c(C(F)(F)F)c1 [FLUTAMIDE] | 0.072
9. CCc1oc2ccccc2c1C(=O)c1cc(I)c(O)c(I)c1 [BENZIODARONE] | 0.04
10. CCC(C)(C)C(=O)O[C@H]1C[C@@H](C)C=C2C=C[C@H](C)[C@H](CC[C@@H]3C[C@@H](O)CC(=O)O3)[C@H]21 [SIMVASTATIN] | 0.016
11. C[C@](N)(Cc1ccc(O)c(O)c1)C(=O)O [METHYLDOPA] | 0.018

---

# Species on record: Rattus norvegicus
# assay comment: Open TG-GATES - Regimen: Daily Repeat
# Format: toxicity, organism-based, Sprague-Dawley
# Parameters: regimen Daily Repeat, gender Male, age 6 weeks
# condition context: in vivo, po, 100 mg/kg, […], tissue Plasma, route gavage, dose level Low, time 28 day
quantity kind: GLC (mg/dL)

1. CC(C)(S)[C@@H](N)C(=O)O | 179.4
2. CCN1CCCC1CNC(=O)c1cc(S(N)(=O)=O)ccc1OC (centres undefined) [SULPIRIDE] | 178
3. O=C(O)c1cccnc1 | 192.8
4. O=C(N[C@H](CO)[C@H](O)c1ccc([N+](=O)[O-])cc1)C(Cl)Cl | 171.2

---

Reported LDH is given for each of the following molecules.
# Species on record: Rattus norvegicus
# assay comment: Open TG-GATES - Regimen: Daily Repeat
# Assay type: toxicity, organism-based, Sprague-Dawley
# Parameters: regimen Daily Repeat, gender Male, age 6 weeks
# condition context: in vivo, po, 1000 mg/kg, […], tissue Plasma, route gavage, dose level High, time 14 day
quantity kind: LDH (IU/L)

1) O=C(N[C@H](CO)[C@H](O)c1ccc([N+](=O)[O-])cc1)C(Cl)Cl | 53.6
2) CC(C)(S)[C@@H](N)C(=O)O | 79.6
3) CCN1CCCC1CNC(=O)c1cc(S(N)(=O)=O)ccc1OC (centres undefined) [SULPIRIDE] | 54
4) O=C(O)c1cccnc1 | 140.8

---

# Species on record: Rattus norvegicus
# assay comment: Open TG-GATES - Regimen: Daily Repeat
# Format: toxicity, organism-based, Sprague-Dawley
# Design: regimen Daily Repeat, gender Male, age 6 weeks
# condition context: in vivo, po, 1000 mg/kg, 72 h, tissue Plasma, route gavage, dose level High, time 3 day
quantity kind: ALP (IU/L)

1) O=C(N[C@H](CO)[C@H](O)c1ccc([N+](=O)[O-])cc1)C(Cl)Cl | 1258.6
2) O=C(O)c1cccnc1 | 1534.6
3) CC(C)(S)[C@@H](N)C(=O)O | 1073
4) CCN1CCCC1CNC(=O)c1cc(S(N)(=O)=O)ccc1OC (centres undefined) [SULPIRIDE] | 1652

---

# Species: Rattus norvegicus
# assay comment: Open TG-GATES - Regimen: Daily Repeat
# Format: toxicity, organism-based, Sprague-Dawley
# Parameters: regimen Daily Repeat, gender Male, age 6 weeks
# condition context: in vivo, po, 1000 mg/kg, […], tissue Plasma, route gavage, dose level High, time 14 day
quantity kind: Cl (meq/L)

1. O=C(O)c1cccnc1 [NIACIN] | 105.2
2. CC(C)(S)[C@@H](N)C(=O)O [PENICILLAMINE] | 105.4
3. O=C(N[C@H](CO)[C@H](O)c1ccc([N+](=O)[O-])cc1)C(Cl)Cl [CHLORAMPHENICOL] | 105.6
4. CCN1CCCC1CNC(=O)c1cc(S(N)(=O)=O)ccc1OC (centres undefined) [SULPIRIDE] | 102.6
